Origin of values: ChEMBL document CHEMBL3407438

# Assay Name: AUC in Wistar rat at 0.5 mg/kg, po
# Type: ADME, organism-based
# Parameters: dose 0.5 mg/kg, route oral
# Run Parameters: plasma
Endpoint Name: AUC (ng·h/mL)
Numbers only here, please. The scale is ng·h/mL.

Q: Would you mind telling me what AUC value was observed for Cn1cc(-c2ccc(-c3cncc(Cl)c3N3CCC4(CCNC4=O)CC3)cc2)cn1 ?
Ans: 288

###

# Assay Name: Volume of distribution at steady state in Wistar rat at 0.2 mg/kg, iv
# Assay type: ADME, organism-based
# Design: dose 0.2 mg/kg, route intravenous
# Run Parameters: in vivo, read-out: Vdss
Endpoint Name: Vd (L/kg)
Lab book: enter the figure in L/kg, no units written.

Q: Entry Cn1cc(-c2ccc(-c3cncc(Cl)c3N3CCC4(CCNC4=O)CC3)cc2)cn1 has what Vd?
Ans: 1.8
